assay: modulators of HCV replicon luciferase signal, primary screen, HCV replication inhibitor project, Huh7 cells, luciferase reporter (AID 1109); details: 48 h, higher = more signal;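 note: huh7 hepatoma cells harbouring a luciferase neomycin HCV replicon reporter; luciferase luminescence as measure of HCV replicon replication; test concentration not given here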
The entries below come with measured z-score values attached.
endpoint: z-score

compound | endpoint | measurement
CCCCCN1CC=CC23O[C@@H]4/C=C\CCCOC(=O)C4[C@H]2C(=O)N(CCCO)[C@@H]3C1=O (some centres undefined) | z-score | -0.549
COC(=O)[C@@]1(Cc2ccc(F)cc2)[C@H]2c3cc(C(=O)N4CCCC4)n(Cc4cc(C)n(C)n4)c3C[C@H]2CN1C(=O)c1ccccc1 | z-score | -1.17
[N-]=[N+]=Nc1ccccc1C[C@]1(C(N)=O)N=C(c2ccc(OCCCO)cc2)O[C@H]1c1ccccc1 | z-score | -0.947
C=CCC(OC(C)=O)[C@@H]1[C@@H](N(Cc2ccc(-c3cccc(C(F)(F)F)c3)o2)C(=O)c2ccc(-c3ccccc3)cc2)c2cc(OCCCO)ccc2N1C(=O)c1ccc(-c2ccccc2)cc1 (some centres undefined) | z-score | -0.614
